# targetUnderTest: Cruzipain (Trypanosoma cruzi) (UniProt P25779)
# Sequence (P25779 123-467 limits assumed): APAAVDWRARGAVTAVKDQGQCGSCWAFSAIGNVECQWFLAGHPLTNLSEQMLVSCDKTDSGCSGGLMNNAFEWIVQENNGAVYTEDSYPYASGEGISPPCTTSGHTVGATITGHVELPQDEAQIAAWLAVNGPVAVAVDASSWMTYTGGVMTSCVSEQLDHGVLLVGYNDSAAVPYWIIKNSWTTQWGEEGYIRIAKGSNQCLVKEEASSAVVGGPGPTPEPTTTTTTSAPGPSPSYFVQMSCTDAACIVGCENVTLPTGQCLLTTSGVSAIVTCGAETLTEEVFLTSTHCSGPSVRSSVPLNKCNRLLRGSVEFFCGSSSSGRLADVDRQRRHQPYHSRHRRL
# assaySummary: qHTS Assay for Promiscuous and Specific Inhibitors of Cruzain (without detergent);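 further: plate controls were enzyme without inhibitor for no effect and buffer without enzyme for full effect; nearly all actives have a fitted effect of over 40% in size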
# assaySetup: purified cruzain, Z-FR-AMC fluorescence, no detergent
In all, about 200,000 compounds went through this assay and about 4,500 (2.2%) were called active. About 12% were inconclusive and are not listed. This is one part of a sample in which actives are shown more often than they occur.
Listing of entries alongside the reported max response, negative = inhibition.
State just the number; it will be interpreted in %.

Example entries and their recorded answers appear below.
molsmiles=O=C(Cn1c(=O)nc(-c2ccccc2)c2cc(Cl)ccc21)NCc1ccc(Cl)cc1 targetundertest="Cruzipain (Trypanosoma cruzi) (UniProt P25779)" testvalue=-1.57
molsmiles=COC(=O)CSc1nc(C2CC2)nc2ccccc12 targetundertest="Cruzipain (Trypanosoma cruzi) (UniProt P25779)" testvalue=-5.14
molsmiles=O=C(CSc1nc(C2CC2)nc2ccccc12)Nc1ccc2c(c1)OCCO2 targetundertest="Cruzipain (Trypanosoma cruzi) (UniProt P25779)" testvalue=2.26
molsmiles=Cc1ccc(S(=O)(=O)N2CC(=O)Nc3ccccc32)cc1C targetundertest="Cruzipain (Trypanosoma cruzi) (UniProt P25779)" testvalue=2.47
molsmiles=COc1ccccc1CNC(=O)CCCCn1c(=O)c2ccccc2n(CC(=O)Nc2cc(Cl)ccc2C)c1=O targetundertest="Cruzipain (Trypanosoma cruzi) (UniProt P25779)" testvalue=-2.88
molsmiles=CCOC(=O)c1oc2ccc(S(=O)(=O)n3nc(-c4ccccc4OC)cc3N)cc2c1C targetundertest="Cruzipain (Trypanosoma cruzi) (UniProt P25779)" testvalue=-16.2

Task: Which max response, negative = inhibition value belongs to Cc1ccc(CCNC(=O)C2CCN(c3nnc(-n4cccc4CNc4ccc(C)cc4)s3)CC2)cc1 ?
Output: -8.42

Task: Which max response, negative = inhibition value belongs to CCOc1cccc(C(=O)Nc2cccnc2)c1 ?
Output: 1.56

Task: Which max response, negative = inhibition value belongs to O=C(O)c1ccc(Nc2nc(-c3ccccc3)c3cc(Br)ccc3n2)cc1 ?
Output: 27.1

Task: Which max response, negative = inhibition value belongs to CCN(CC)S(=O)(=O)c1ccc2c(c1)N(CC(=O)NCc1ccccc1)C(=O)CS2 ?
Output: 1.54
